system_name: E. coli MurD (Escherichia coli, UniProt P14900)
Sequence (P14900 whole entry): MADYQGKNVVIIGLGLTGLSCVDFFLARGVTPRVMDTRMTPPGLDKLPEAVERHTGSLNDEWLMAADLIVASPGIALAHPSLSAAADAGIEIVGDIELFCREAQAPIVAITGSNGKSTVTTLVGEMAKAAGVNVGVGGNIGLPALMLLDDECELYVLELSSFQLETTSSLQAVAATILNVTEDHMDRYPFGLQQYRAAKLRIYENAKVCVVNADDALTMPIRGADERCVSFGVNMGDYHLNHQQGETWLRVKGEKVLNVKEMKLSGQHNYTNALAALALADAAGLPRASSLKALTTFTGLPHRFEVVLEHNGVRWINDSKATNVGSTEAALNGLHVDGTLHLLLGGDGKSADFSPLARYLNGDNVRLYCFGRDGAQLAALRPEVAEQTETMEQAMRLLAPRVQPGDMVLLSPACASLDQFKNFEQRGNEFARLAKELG
experimental_details: biochemical
measurement_setup: 0.25 h, Table S1, PKIS screening; read-out: RA [%] at 100 µM MurD

# molecule, remaining activity at 100 µM / %
rows = [
    ("NC(=O)c1cccc(Nc2nccc(Nc3cccc4[nH]ncc34)n2)c1 [GW782612X]", 92),
    ("NC(=O)c1cc(-c2ccc(F)cc2)cc(-c2ccncc2)c1N [GSK620503A]", 71),
    ("O=C(Nc1n[nH]c2nc(-c3ccco3)ccc12)C1CC1", 89),
    ("COC(=O)c1cncc(/C=C/c2c(C)cc(O)cc2C)c1 [GW406731X]", 69),
    ("CN(C)c1ccc2c(c1)/C(=C/Nc1ccc(S(N)(=O)=O)cc1)C(=O)N2 [GW416469X]", 89),
    ("N#Cc1c(NC(=O)c2ccccc2F)sc2c1CCCC2 [GW572738X]", 91),
    ("COc1cccc(-n2ncc3c(N/N=C/c4ccc(C)cc4)ncnc32)c1 [GW829877X]", 85),
    ("CC(C)c1ccc(Nc2nccc(-c3cnn4ncccc34)n2)cc1 [GW805758X]", 57),
    ("C/C(Nc1ccc(S(N)(=O)=O)cc1)=C1/C(=O)Nc2ccccc21 [GW335962X]", 76),
    ("O=C1NC(=O)C(c2ccccc2Cl)=C1Nc1cccc(O)c1", 83),
    ("COC(=O)Nc1nc2ccc(S(=O)(=O)c3ccc(NC(=O)Nc4cc(C(F)(F)F)ccc4F)cc3)cc2[nH]1 [GW680908A]", 69),
    ("COC(=O)c1ccc2c(c1)C(=Cc1cc(Br)c(O)c(Br)c1)C(=O)N2 [GW405841X]", 82),
    ("CNC(=O)Oc1cc(C)c(/C=C/c2cncc(C(=O)NC)c2)c(C)c1 [GW432441X]", 69),
    ("Nc1ncc(-c2cccc(S(N)(=O)=O)c2)c2scc(-c3ccc(F)c(Cl)c3)c12 [GW856804X]", 75),
    ("O=C(NCC1CC1)c1ccc(-c2cccc(C(=O)NC3CC3)c2)cc1 [GW806776X]", 95),
    ("CCn1c(-c2nonc2N)nc2c(C#CC(C)(C)O)nc(OC[C@@H](N)c3ccccc3)cc21 [GSK938890A]", 80),
    ("C[C@@H](Oc1cc(-n2cnc3ccc(OCC4CCN(C)CC4)cc32)sc1C(N)=O)c1ccccc1Cl [GSK571989A]", 53),
    ("Nc1nc(-c2cccc(Cl)c2)c(-c2ccc3ncccc3n2)s1 [GW780159X]", 90),
]

----------
system_name: E. coli MurF (Escherichia coli, UniProt P11880)
Sequence (P11880 whole entry): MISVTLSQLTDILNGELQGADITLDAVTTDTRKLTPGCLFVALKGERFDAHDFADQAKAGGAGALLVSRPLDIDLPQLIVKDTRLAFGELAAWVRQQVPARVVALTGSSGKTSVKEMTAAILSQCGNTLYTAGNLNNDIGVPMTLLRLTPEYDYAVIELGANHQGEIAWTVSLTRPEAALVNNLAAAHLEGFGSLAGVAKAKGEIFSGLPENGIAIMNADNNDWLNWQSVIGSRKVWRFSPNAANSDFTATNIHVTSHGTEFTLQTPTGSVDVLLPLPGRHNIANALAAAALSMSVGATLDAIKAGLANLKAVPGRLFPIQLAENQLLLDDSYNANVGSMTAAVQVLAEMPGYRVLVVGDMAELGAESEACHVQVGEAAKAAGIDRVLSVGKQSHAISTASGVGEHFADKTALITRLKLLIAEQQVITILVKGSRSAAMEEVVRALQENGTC
experimental_details: biochemical
measurement_setup: 0.25 h, Table S1, PKIS screening; read-out: RA [%] at 100 µM MurF
Procedure: Inhibition of the Mur ligases was determined using the malachite green assay, with slight modifications. In all cases, the final concentration of DMSO was 5% (v/v). After incubation for 15 min at 37 °C, the enzyme reaction was terminated by addition of 100 µM Biomol green reagent, and the absorbance was measured at 650 nm after 5 min. […] Residual activities were calculated with respect to control assays without the tested compounds, but with the 5% DMSO carrier. […]
For each record, check the reported remaining activity at 100 µM: if it is below 90% write rule met, else write rule not met.

# compound, label_value
measured = [
    ("COc1ccc(-c2nn3ncccc3c2-c2ccnc(Nc3cccc(C(F)(F)F)c3)n2)cc1 [Compound 3]", "rule met"),
    ("COc1ccc2ncnc(Nc3ccc(OCc4ccccc4)cc3)c2c1 [GI261520A]", "rule met"),
    ("CS(=O)(=O)CCNCc1ccc(-c2ccc3ncnc(Nc4ccc(OCc5ccccc5)c(C(F)(F)F)c4)c3c2)o1 [GW574782A]", "rule not met"),
    ("CC(C)COC(=O)c1ccc2c(c1)/C(=C/Nc1ccc(S(N)(=O)=O)cc1)C(=O)N2 [GW416981X]", "rule met"),
    ("CNC(=O)c1cncc(/C=C/c2c(Cl)cccc2Cl)c1 [GW445014X]", "rule met"),
    ("CS(=O)(=O)CCNCc1ccc(-c2ccc3ncnc(Nc4ccc(OCc5ccccc5)c(Cl)c4)c3c2)o1 [GW574783B]", "rule met"),
    ("Fc1ccc(-c2nn3ccccc3c2-c2ccncc2)cc1 [GW434756X]", "rule not met"),
    ("Nc1ncnc2occ(-c3ccc(NC(=O)Nc4cc(C(F)(F)F)cc(C(F)(F)F)c4)cc3)c12 [GW795486X]", "rule met"),
    ("COc1cccc(COc2cc(-n3cnc4ccccc43)sc2C(N)=O)c1 [GW804482X]", "rule met"),
    ("CS(=O)(=O)CCNCc1ccc(-c2ccc3ncnc(Nc4ccc(OCc5cccc(C(F)(F)F)c5)cc4)c3c2)o1 [GW567808A]", "rule not met"),
    ("CC(=O)NCc1cccc(C#Cc2cncnc2Nc2ccc(OCc3cccc(F)c3)c(Cl)c2)c1 [GW807930X]", "rule met"),
    ("COC(=O)Nc1nc2ccc(Oc3ccc(NC(=O)Nc4cccc(Br)c4)cc3)cc2[nH]1 [GW694234A]", "rule met"),
    ("COc1cc2ncnc(Nc3ccc4c(cnn4Cc4ccccc4)c3)c2cc1OC [GW282449A]", "rule met"),
    ("Nc1nc(-c2ccccn2)c(-c2ccc3ncccc3n2)s1 [GW693481X]", "rule not met"),
    ("NS(=O)(=O)c1ccc(N/C=C2\\C(=O)Nc3ccc4ncsc4c32)cc1 [GW297361X]", "rule met"),
    ("NS(=O)(=O)c1ccc(Nc2ncc(-c3ccccc3)o2)cc1 [GW572399X]", "rule met"),
    ("O=C(O[C@H]1CN[C@H](C#Cc2cc3ncnc(Nc4ccc5c(cnn5Cc5ccccc5)c4)c3s2)C1)N1CCOCC1 [GSK200398A]", "rule met"),
]

Attribution: paper PMC6522912
